TEST_SYSTEM: 5-LOX (Homo sapiens, UniProt P09917)
Construct: purchased Abcam
Sequence (P09917 whole entry): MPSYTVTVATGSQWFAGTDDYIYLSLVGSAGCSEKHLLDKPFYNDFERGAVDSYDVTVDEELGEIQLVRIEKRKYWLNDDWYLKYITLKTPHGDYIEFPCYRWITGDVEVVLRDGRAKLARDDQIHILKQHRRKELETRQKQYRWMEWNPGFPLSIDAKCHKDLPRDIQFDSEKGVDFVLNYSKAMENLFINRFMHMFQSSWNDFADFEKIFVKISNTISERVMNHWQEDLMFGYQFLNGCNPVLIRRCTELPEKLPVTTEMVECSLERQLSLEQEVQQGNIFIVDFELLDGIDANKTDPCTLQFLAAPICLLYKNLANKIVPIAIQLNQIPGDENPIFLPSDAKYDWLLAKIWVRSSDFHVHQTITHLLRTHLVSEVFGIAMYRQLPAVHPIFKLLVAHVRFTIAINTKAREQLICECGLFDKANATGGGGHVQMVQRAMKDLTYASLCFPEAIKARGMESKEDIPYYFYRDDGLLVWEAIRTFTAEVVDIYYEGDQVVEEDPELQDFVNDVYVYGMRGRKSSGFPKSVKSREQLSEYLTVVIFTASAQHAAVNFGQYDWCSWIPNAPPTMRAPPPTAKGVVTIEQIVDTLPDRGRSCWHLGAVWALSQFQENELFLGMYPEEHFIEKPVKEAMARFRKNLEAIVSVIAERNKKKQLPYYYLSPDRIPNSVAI
ASSAY_EXPLANATION: Fluorometric 5-LOX inhibitor screening kit
Type: biochemical
PROTOCOL_CONDITIONS: mean of two measurements with standard error, read-out: 5-LOX Percent of Inhibition
Reported inhibition at 10 µM is given for each of the following compounds.
MEASUREMENT_KIND: inhibition at 10 µM (%)

[[record]]
compound_structure_string = "COc1ccc2cc([C@H](C)C(=O)NC(=S)Nc3ccccc3C)ccc2c1"
measurement_kind = "inhibition at 10 µM"
reading_unit = "%"
measured_result = 27.9

[[record]]
compound_structure_string = "COC(=O)[C@H](Cc1c[nH]c2ccccc12)NC(=S)NC(=O)[C@@H](C)c1ccc2cc(OC)ccc2c1"
measurement_kind = "inhibition at 10 µM"
reading_unit = "%"
measured_result = 46.2

[[record]]
compound_structure_string = "COc1ccc2cc([C@H](C)C(=O)NC(=S)Nc3ccccc3)ccc2c1"
measurement_kind = "inhibition at 10 µM"
reading_unit = "%"
measured_result = 34.6

[[record]]
compound_structure_string = "COc1ccc2cc([C@H](C)C(=O)NC(=S)Nc3ccccc3F)ccc2c1"
measurement_kind = "inhibition at 10 µM"
reading_unit = "%"
measured_result = 29.7

[[record]]
compound_structure_string = "COc1ccc2cc([C@H](C)C(=O)NC(=S)Nc3ccccc3OC)ccc2c1"
measurement_kind = "inhibition at 10 µM"
reading_unit = "%"
measured_result = 31.2

[[record]]
compound_structure_string = "COC(=O)[C@H](Cc1ccccc1)NC(=S)NC(=O)[C@@H](C)c1ccc2cc(OC)ccc2c1"
measurement_kind = "inhibition at 10 µM"
reading_unit = "%"
measured_result = 19.8

[[record]]
compound_structure_string = "COc1ccc2cc([C@H](C)C(=O)NC(=S)Nc3ccc(C)cc3)ccc2c1"
measurement_kind = "inhibition at 10 µM"
reading_unit = "%"
measured_result = 12.9

